- measured_target: T1, SUDV GP (recombinant) (SUDV (Sudan ebolavirus), UniProt Q66814 33-650)
- T1 chain: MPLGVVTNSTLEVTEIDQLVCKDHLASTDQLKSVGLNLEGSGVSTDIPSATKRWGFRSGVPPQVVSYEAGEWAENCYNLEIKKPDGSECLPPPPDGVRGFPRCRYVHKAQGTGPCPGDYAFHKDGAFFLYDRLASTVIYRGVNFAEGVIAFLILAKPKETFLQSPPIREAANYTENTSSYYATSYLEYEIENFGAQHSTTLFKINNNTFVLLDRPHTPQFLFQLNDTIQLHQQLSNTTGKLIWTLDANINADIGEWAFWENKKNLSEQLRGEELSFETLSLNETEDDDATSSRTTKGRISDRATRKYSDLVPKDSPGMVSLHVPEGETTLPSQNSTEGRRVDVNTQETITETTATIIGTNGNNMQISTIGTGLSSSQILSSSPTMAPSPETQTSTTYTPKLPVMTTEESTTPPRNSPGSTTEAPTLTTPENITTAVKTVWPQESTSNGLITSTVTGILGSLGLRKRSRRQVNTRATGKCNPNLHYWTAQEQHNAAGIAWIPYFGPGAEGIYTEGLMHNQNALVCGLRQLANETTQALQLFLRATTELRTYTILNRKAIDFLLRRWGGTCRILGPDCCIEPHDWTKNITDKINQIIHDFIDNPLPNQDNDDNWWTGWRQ
- assay_name: ELISA
Kindly state EC50 for each of the entries shown.
Answers are plain numbers, in mg/L.

Please report EC50 for every entry that follows.
1. BDBV223 (antibody, V domains shown) VH: QVQLQQWGAGLLKPSETLSLTCAVYGGSFTTTYWNWIRQPPGKGLEWIGEVNYSGNANYNPSLKGRVAISVDTSKNQFSLRLNSVTAADTAIYYCTSRIRSHIAYSWKGDVWGKGTTVTVSS VL: EIVMTQSPGTLSLSPGERATLSCRASQSVPRNYIGWFQQKPGQAPRLLIYGASSRAAGFPDRFSGSGSGTDFTLTITRLEPEDFAMYYCHQYDRLPYTFGQGTKLEIK
2. BDBV270 (antibody, V domains shown) VH: QVQLQESGPGLVKPSQTLSLTCTVSGASISRGLYYWSWIRQPAGKGLEWIGRIYTSGSINYNPSLKSRVTISVDTSKNQFSLRLSSVIATDTAVYYCVRDAPWGDFLTGYFGFYGMDVWGQGTLVTVSS VL: DIVMTQSPSSLSASVGDRVTITCRASQSINTYLNWYQQKPGKAPKFLIYAASSLHSGVPSRFSGSGSGTDFTLTINSLQPDDFATYYCQQSFTTPYTFGQGTKLEIK
3. BDBV289 (antibody, V domains shown) VH: QVQLVQSGAEVKKPGSSVKVSCKASGATFGSDTVTWVRQAPGQGLEWMGGIIPFFGEANYAQRFQGRVTITADKSTNTAYMELSSLRSEDTAVYFCARQINEMATFGEIHYYTYMDVWGQGTLVTVSS VL: GSELTQDPAVSVALGQTVRITCQGDSLRNYYASWYQQKPRQAPVLVFYGKNNRPSGIPDRFSGSSSGNTASLTISGAQAEDEADYYCNSRDSSSNHLVFGGGTKLTVLS
4. BDBV324 (antibody, V domains shown) VH: QVQLVQSGAEVKKPGASVKVSCKTSGYTFTSFEIHWVRQGSGQGLEWMGRMNPKSGDTVSAQKFQGRVTLTRDTSINAAYMELGSLSSEDTAVYYCARGPHVGEVVPGLMAGTYYFPLDVWGQGTLVTVSS VL: DIQMTQSPSTLSASIGDRVTITCRASQSISRWLAWYQQKPGKAPKLLIYKVSDLQSGVPSRFSGSGYGTEFTLTIGSLQPDDLATYYCQQYDTYPWTFGQGTKLEIK

[0.106, 0.159, 0.103, 0.09]
